biological target: P2X4 (Homo sapiens, UniProt Q99571); test: Assay A: human P2X4 receptor cell line, FLIPR calcium assay (Fluo-8, agonist Bz-ATP at EC80); assay type: cell-based; design: host or cells: HEK 293 (recombinant, constitutively expressing; with mitochondrial photina in Assay B); settings: HEK human P2X4 cells, Fluo-8 FLIPR, Bz-ATP at EC80; average values
Sequence (Q99571 whole entry): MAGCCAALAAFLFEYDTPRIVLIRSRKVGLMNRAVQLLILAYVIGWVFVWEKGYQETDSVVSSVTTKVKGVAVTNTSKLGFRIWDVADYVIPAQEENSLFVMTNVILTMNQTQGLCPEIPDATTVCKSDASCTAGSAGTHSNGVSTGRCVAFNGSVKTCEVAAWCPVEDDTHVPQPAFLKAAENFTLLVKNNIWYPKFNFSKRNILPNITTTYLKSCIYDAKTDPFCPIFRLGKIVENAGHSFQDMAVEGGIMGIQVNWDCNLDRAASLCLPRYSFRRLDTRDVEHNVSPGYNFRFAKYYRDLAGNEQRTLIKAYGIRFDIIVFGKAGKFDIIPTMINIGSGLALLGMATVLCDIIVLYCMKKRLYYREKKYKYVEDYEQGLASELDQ
measure: pIC50
Scale explanation: pIC50 corresponds to minus log10 of a concentration expressed in moles per litre.

Form field pIC50 for item "COc1cccc(COc2ccc(NC(=O)Cc3ccccc3Cl)cc2S(N)(=O)=O)c1" on P2X4 (Homo sapiens, UniProt Q99571): 8.10

---
Form field pIC50 for item "NS(=O)(=O)c1cc(NC(=O)Cc2ccccc2Cl)ccc1OCC1(F)CCOCC1" on P2X4 (Homo sapiens, UniProt Q99571): 7.17

Form field pIC50 for item CC(C(=O)Nc1ccc(Oc2cccc(Cl)c2)c(S(N)(=O)=O)c1)c1c(F)cccc1Cl (stereo not drawn) on P2X4 (Homo sapiens, UniProt Q99571): 6.11

Form field pIC50 for item "CC(=O)c1cccc(Oc2ccc(NC(=O)Cc3ccccc3Cl)cc2S(N)(=O)=O)c1" on P2X4 (Homo sapiens, UniProt Q99571): 7.80

Data provenance: patent US20180338980A1
